Hi! I'm sharing some Ki results obtained with Acetylcholinesterase (Homo sapiens).
Sequence (P22303 whole entry): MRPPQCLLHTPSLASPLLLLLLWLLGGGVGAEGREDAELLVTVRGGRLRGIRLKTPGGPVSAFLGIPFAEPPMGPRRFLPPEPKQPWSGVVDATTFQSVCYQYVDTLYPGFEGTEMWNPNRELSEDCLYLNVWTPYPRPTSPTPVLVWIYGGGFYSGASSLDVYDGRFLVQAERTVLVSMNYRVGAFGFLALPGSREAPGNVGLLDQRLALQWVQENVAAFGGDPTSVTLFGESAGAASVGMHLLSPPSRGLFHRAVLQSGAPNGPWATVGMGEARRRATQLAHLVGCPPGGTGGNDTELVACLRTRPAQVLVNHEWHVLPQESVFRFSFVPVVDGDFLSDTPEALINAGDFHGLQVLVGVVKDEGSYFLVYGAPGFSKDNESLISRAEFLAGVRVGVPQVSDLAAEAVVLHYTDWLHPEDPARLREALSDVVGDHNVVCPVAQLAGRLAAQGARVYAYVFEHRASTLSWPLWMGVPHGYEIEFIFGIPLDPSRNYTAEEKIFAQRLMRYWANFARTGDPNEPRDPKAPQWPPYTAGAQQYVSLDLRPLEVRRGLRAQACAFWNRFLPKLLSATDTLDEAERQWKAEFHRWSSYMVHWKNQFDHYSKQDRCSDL
Lab book: enter the figure in µM, no units written.

O=C(Cc1cc(=O)oc2cc(O)ccc12)NNC(=S)Nc1c2c(nc3ccccc13)CCCC2 ... 1.94

Query string: Please look at this molecule and report its Ki: O=C(Cc1cc(=O)oc2cc(O)ccc12)NCCCCNc1c2c(nc3ccccc13)CCCC2
Result string: 0.0041

Query string: Please look at this molecule and report its Ki: O=C(Cc1cc(=O)oc2cc(O)ccc12)N/N=C1\SCC(=O)N1c1c2c(nc3ccccc13)CCCC2
Result string: 2.36

Query string: Please look at this molecule and report its Ki: CCN(CCC(=O)NCCCCNc1c2c(nc3ccccc13)CCCC2)C1CCCCC1
Result string: 0.199

Query string: Please look at this molecule and report its Ki: CCN(CCC(=O)NCCCNc1c2c(nc3ccccc13)CCCC2)C1CCCCC1
Result string: 0.0804

Where these numbers come from: ChEMBL document CHEMBL3351824
